# systemUnderTest: PBRM1 BD4 (UniProt Q86U86 496-637)
# Sequence (Q86U86 496-637): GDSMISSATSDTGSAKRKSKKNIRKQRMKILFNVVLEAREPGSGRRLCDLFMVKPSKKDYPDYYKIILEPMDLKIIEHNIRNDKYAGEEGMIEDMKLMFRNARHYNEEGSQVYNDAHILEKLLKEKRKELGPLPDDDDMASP
# testDescription: NMR titration (1H-15N HSQC); NMR: 0.1 mM 15N-BD, 50 mM K phosphate pH 7.0, 50 mM KCl, 2 mM DTT, 2 mM EDTA, 7% D2O, 25 C; EMSA: 50 mM K phosphate pH 7.0, 10 mM KCl, 2 mM DTT, 2 mM EDTA, 5% sucrose, on ice 1 h, gel at 4 C
# recordedConditions: protein: recombinant; tags: His tag, TEV-cleaved
Let's look at some binders and their measured Kd.
Respond with the bare value in µM.

>  <binder>
CGTAGACAGCT (ssDNA) [ssDNA]

>  <Kd (µM)>
2970

$$$$

Shift focus to the following entry.
Query: Using the record for UUUUUUUUUUUUU (ssRNA) [ssRNAI poly-U 13 nt] , report its Kd.
Result: 320
